subjectOfTest: hGcgR (Homo sapiens, UniProt P47871)
Sequence (P47871 26-477): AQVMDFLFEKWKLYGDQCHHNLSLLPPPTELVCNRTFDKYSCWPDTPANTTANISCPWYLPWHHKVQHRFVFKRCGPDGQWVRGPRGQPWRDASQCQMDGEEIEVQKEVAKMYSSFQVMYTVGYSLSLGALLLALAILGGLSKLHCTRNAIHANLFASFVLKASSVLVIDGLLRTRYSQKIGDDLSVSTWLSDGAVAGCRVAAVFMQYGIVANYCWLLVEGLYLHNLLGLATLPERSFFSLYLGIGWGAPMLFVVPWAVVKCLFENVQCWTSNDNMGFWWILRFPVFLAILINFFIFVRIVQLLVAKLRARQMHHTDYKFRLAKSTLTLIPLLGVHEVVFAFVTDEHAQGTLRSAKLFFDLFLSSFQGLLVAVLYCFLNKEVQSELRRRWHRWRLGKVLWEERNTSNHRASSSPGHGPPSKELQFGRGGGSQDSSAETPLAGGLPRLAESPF
protocolSummary: Functional cAMP activation in the presence of 0.1% casein (no HSA);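 also: intracellular cAMP rise after 30 min at 37 °C, read by HTRF against a cAMP standard curve, scaled from buffer only (0%) to maximal control ligand response (100%)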
Assay type: cell-based
protocolConditions: in the presence of 0.1% casein (no HSA); geometric mean; read-out: Relative cAMP EC50, hGcgR
Starred links: 1 amine or outer side, 2 acyl side, 3 side chain; linkers in the order of their positions; H or OH if unused. Non-standard residues stand in square brackets, D forms with d. Groups on a side chain read outwards from the residue. No end group written: not given here. *: point of attachment. C18 diacid = O=C(O)CCCCCCCCCCCCCCCCC(=O)*; Phe(4-CN) = N#Cc1ccc(C[C@H](N)C(=O)O)cc1; αMePhe(2-F) = C[C@](N)(Cc1ccccc1F)C(=O)O; γGlu = O=C(O)[C@H](CCC(=O)[*:2])N[*:1]; αMe4Pal = C[C@](N)(Cc1ccncc1)C(=O)O; αMeY = C[C@](N)(Cc1ccc(O)cc1)C(=O)O; 4Pal = N[C@@H](Cc1ccncc1)C(=O)O; αMeL = CC(C)C[C@](C)(N)C(=O)O; αMeS = C[C@](N)(CO)C(=O)O; Orn = NCCC[C@H](N)C(=O)O; AEEA = NCCOCCOCC(=O)O; Aib = CC(C)(N)C(=O)O
readout: pEC50
Schema: pEC50 number; meaning minus log10 of the concentration expressed in molar units.

Recall and state the measured pEC50 for H-Y[Aib]QGTFTSDFS[Orn][αMeL]LDKK([AEEA-γGlu-C18 diacid])AQ[Aib]AFIEYLLEGGHSSGEPPPGGS-NH2 [Example 164] . 8.53

Recall and state the measured pEC50 for H-Y[Aib]QGT[αMePhe(2-F)]TSD[4Pal][αMeS]I[αMeL]LD[Orn]K([AEEA-γGlu-C18 diacid])AQ[αMe4Pal]EFI[dE][αMeY]LIEGGPSSGAPPPGGE-NH2 [Example 1144] . 8.88

Recall and state the measured pEC50 for H-Y[Aib]QGTFTSDFS[Orn][αMeL]LDKK([AEEA-γGlu-C18 diacid])AQ[Aib]AFIEWLLEGGHSSGAPPPSGT-NH2 [Example 171] . 8.41

Recall and state the measured pEC50 for H-Y[Aib]QGTFTSD[4Pal]SQ[αMeL]LDKK([AEEA-γGlu-C18 diacid])AQ[Aib]AFIE[αMeY]LLEGGPSSGAPPPSGS-NH2 [Example 910] . 8.01

Recall and state the measured pEC50 for H-Y[Aib]QGTFTSDFS[Orn][αMeL]LDKK([AEEA-γGlu-C18 diacid])AQ[Aib]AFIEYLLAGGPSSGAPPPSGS-NH2 [Example 95] . 8.08

Recall and state the measured pEC50 for H-Y[Aib]QGT[αMePhe(2-F)]TSD[4Pal][αMeS]I[αMeL]LD[Orn]K([AEEA-γGlu-C18 diacid])AQ[αMe4Pal]EFI[dE][αMeY]LIEGGPSSGAPPPTGE-NH2 [Example 1142] . 8.87

Recall and state the measured pEC50 for H-Y[Aib]QGTFTSD[Phe(4-CN)]S[Orn][αMeL]LDKK([AEEA-γGlu-C18 diacid])AQ[Aib]AFIEYLLE[Aib]GPSSGAPPPSGS-NH2 [Example 191] . 8.68

Recall and state the measured pEC50 for H-Y[Aib]QGTFTSD[4Pal]S[Orn][αMeL]LD[Orn]K([γGlu-γGlu-C18 diacid])AQ[αMe4Pal]AFIEYLIAGGPSSGEPPPSGTEE-NH2 [Example 985] . 8.27

Recall and state the measured pEC50 for H-Y[Aib]QGTFTSDFS[Orn][αMeL]LDKK([AEEA-γGlu-C18 diacid])AQ[αMe4Pal]AFIEYLIE[Aib]GESSGAPPPSGS-NH2 [Example 229] . 8.64

Recall and state the measured pEC50 for H-Y[Aib]QGTFTSD[4Pal]S[Orn][αMeL]LDKK([γGlu-γGlu-C18 diacid])AQ[αMe4Pal]AFIEYLIE[Aib]GPSSGAPPPSGS-NH2 [Example 865] . 8.83

Recall and state the measured pEC50 for H-Y[Aib]QGTFTSD[4Pal]S[Orn][αMeL]LD[Orn]K([dE-γGlu-C18 diacid])AQ[αMe4Pal]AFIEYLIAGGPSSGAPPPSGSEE-NH2 [Example 1063] . 7.97

Recall and state the measured pEC50 for Y[Aib]QGTFTSD[4Pal]SQ[αMeL]LD[Orn]K([dE-γGlu-C18 diacid])AQ[αMe4Pal]AFIEYLIA[Aib]GPSSGEPPPSGSEE-NH2 [Example 1101] . 8.33
